Source: ChEMBL document CHEMBL1143784

biological target: C-X-C chemokine receptor type 3 (Homo sapiens, UniProt P49682); test: Antagonist activity at human CXCR3 expressed in CHO cells by [35S]GTP-gamma-S binding assay
Sequence (P49682 whole entry): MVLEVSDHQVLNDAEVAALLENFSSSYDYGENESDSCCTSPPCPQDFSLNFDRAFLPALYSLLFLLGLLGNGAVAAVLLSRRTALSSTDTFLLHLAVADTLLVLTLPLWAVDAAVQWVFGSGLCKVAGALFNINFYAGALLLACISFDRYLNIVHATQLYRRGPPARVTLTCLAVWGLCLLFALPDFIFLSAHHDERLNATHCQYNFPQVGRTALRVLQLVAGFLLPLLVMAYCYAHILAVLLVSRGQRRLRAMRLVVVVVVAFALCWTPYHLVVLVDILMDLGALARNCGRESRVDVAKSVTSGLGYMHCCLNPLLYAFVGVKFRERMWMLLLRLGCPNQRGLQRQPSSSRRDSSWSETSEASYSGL
Under this convention, Criterion met denotes Ki strictly below 0.2 µM and Criterion not met denotes Ki at or above 0.2 µM.

> print(dat)
                                    molecule     discrete.label
 1  O=C(Nc1cc(F)cc(C(F)(F)F)c1)NC1CCN(C/C2=C/CCCCCC2)CC1      Criterion met
 2  O=C(Nc1ccc(Oc2ccccc2)cc1)NC1CCN(C/C2=C/CCCCCC2)CC1  Criterion not met
 3  CC1(C)[C@H]2CC=C(CN3CCC(NC(=O)Nc4ccccc4)CC3)[C@@H]1C2  Criterion not met
 4  O=C(Nc1cccc(OC(F)(F)F)c1)NC1CCN(C/C2=C/CCCCCC2)CC1      Criterion met
 5  CC1(C)[C@H]2CC=C(CN3CCC(NC(=O)Nc4cc(F)cc(F)c4)CC3)[C@@H]1C2      Criterion met
 6  CC1(C)[C@H]2CC=C(CN3CCC(NC(=O)Nc4cccc(OC5CCOC5)c4)CC3)[C@@H]1C2 (stereo partly drawn)      Criterion met
 7  CC1(C)[C@H]2CC=C(CN3CCC(NC(=O)Nc4ccc(-c5ccccc5Cl)s4)CC3)[C@@H]1C2      Criterion met
 8  CC1(C)[C@H]2CC=C(CN3CCC(NC(=O)Nc4cncc(Br)c4)CC3)[C@@H]1C2      Criterion met
 9  CC1(C)[C@H]2CC=C(CN3CCC(NC(=O)Nc4cc(F)cc(OC5CCOC5)c4)CC3)[C@@H]1C2 (stereo partly drawn)      Criterion met
10  CC(=O)c1cccc(NC(=O)NC2CCN(CC3=CC[C@H]4C[C@@H]3C4(C)C)CC2)c1  Criterion not met
11  COc1cccc(NC(=O)NC2CCN(CC3=CC[C@H]4C[C@@H]3C4(C)C)CC2)c1  Criterion not met
12  CC(C)(C)c1ccc(NC(=O)NC2CCN(C/C3=C/CCCCCC3)CC2)cc1  Criterion not met
13  COc1cccc(-c2ccc(NC(=O)NC3CCN(CC4=CC[C@H]5C[C@@H]4C5(C)C)CC3)s2)c1      Criterion met
14  CC1(C)[C@H]2CC=C(CN3CCC(NC(=O)Nc4ccc(F)c(C(F)(F)F)c4)CC3)[C@@H]1C2      Criterion met
15  CC1(C)[C@H]2CC=C(CN3CCC(NC(=O)Nc4cc(F)cc(C(F)(F)F)c4)CC3)[C@@H]1C2      Criterion met
16  COC(=O)c1cccc(NC(=O)NC2CCN(C/C3=C/CCCCCC3)CC2)c1  Criterion not met
17  O=C(Nc1cccc(C(F)(F)F)c1)NC1CCN(C/C2=C/CCCCCC2)CC1      Criterion met
18  CC1(C)[C@H]2CC=C(CN3CCC(NC(=O)Nc4cncc(-c5ccsc5)c4)CC3)[C@@H]1C2      Criterion met
